Reference source for all entries: the supplement of paper PMC9170038

Test system: K4 kissing-loop RNA reporter
Assay Explanation: apparent KD of K4 kissing-loop reporter; higher = weaker reporter binding
Condition: Eterna round: R107; input ligand: arginine 13.2 mM
Classification field: t = apparent KD of K4 kissing-loop reporter at or over 300 nM; f = apparent KD of K4 kissing-loop reporter under 300 nM.

Use the examples below as a reference point.
sequence_data="UGUACCGAGUCAGGAUAUGGCGUCGAAAGACGAAUGCUAGUGAUGUUAGGGAUCUGCGAAAGCAGUCUAGAAGGGACUUGGUACU [FmnBS 26 G36+U68]" cat=t
sequence_data="AAAUUCUUUUUUUUAUUUAACUUUUCAGAAGGAGCGUGGUAGUACACAGGUAGGUCGCUGAAUAUAAGACUAGUGAUGUUAGUUA [JR_SSArginiA_Sub009]" cat=f
sequence_data="GCAGUGAUGUUGCGCGAGUACGGUAGAGUACGAGGACCGGUACGGCCGCCACUCGUACGGAACUGGCUAAUUUAUGGAAUGGUGA [III]" cat=f

Problem: Decide: apparent KD of K4 kissing-loop reporter of GGAGUUACCUGGGAUACCAGUCGGAGUCUCAGAGCUCGGAGUGAUGUUCUGGGAUGUUUCGGCCCUUGGCAGCUCUGGGACUCCA [#2 Exclusion - Theophylline B Attempt #16 (HarryS)] >= 300 nM?
Solution: t

Problem: Is it the case that AUAGGCAUAGCCCGAGUGAUGUUCGACGAUACCAGCCUCGAUAGAGGCCCUUGGCAGCGUAAAUGAUCAUGAAGCCAAGGAAUUA [whbob_Ex_Theo_A_th70] has apparent KD of K4 kissing-loop reporter reaching or exceeding 300 nM?
Solution: t

Problem: I'd appreciate it if you could say whether CAAACGGGUUGGCUUGGAGACUGCAGACGCAAGGAUAUCGCGAAGACGAGAAGGUGCGGGCCUGGUAGUGAUGUUACAGUUUGGU [theeternabot_sameState_KL_FMN_A_21] has apparent KD of K4 kissing-loop reporter at least equal to 300 nM.
Solution: t

Problem: Does the reported apparent KD of K4 kissing-loop reporter for UGUCAUUGGUCGGCCGCCACUCCAUAAAGAGUGAUGUUCUGAAAGACGGAUCGAAAGAUCUGUCGGAGGACCGGGACCGAUGACU [FiskerMod 3 - Jieux - Same State - Tryptophan B] fall at or above the 300 nM mark?
Solution: t

Problem: Does the reported apparent KD of K4 kissing-loop reporter for GAUAUAGUGAUGUUAUAUGGGAAGGAGUUACGAGGACCGGUACGGCCGCCACUCGAAACGAGUGAGGAUUUGGGAGAUUGGGUUU [SSTryptA.R] fall at or above the 300 nM mark?
Solution: t

====

apparent KD of K4 kissing-loop reporter: recorded values
System: K4 kissing-loop RNA reporter;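 further: bound reporter read as fluorescence of individual clusters on recovered sequencing chips by microscopy, with normalized cluster intensities fitted with a binding model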
Assay Explanation: apparent KD of K4 kissing-loop reporter; higher = weaker reporter binding
Condition: Eterna round: R107; input ligand: tryptophan 2.4 mM
Expressed in µM, but write only the number.

Here is how some sequences turned out for apparent KD of K4 kissing-loop reporter.
sequence_data="AAGUGUGUGGCGGCCGCCACUAGAAUCCAGUGAUGUUGGAGUUAUCAGAUAAAUGAUAAUCAACAUAGGACCGGGCCAUAUAGAA [Same State - Tryptophan B (Freestyle 5)]" readout_kind="apparent KD of K4 kissing-loop reporter" observed_measurement=0.425
sequence_data="AGGCACGAGCAAGGAUAUCGAGUAGAGUGAUGUUCUGCCUGGGUUGGCUCGAAAGAGCCUUCUCAGCGAGAAGGUGCUCGUGCCU [#2 Same State - FMN A Attempt #21 (HarryS)]" readout_kind="apparent KD of K4 kissing-loop reporter" observed_measurement=0.751
sequence_data=UGAUAGGACAGAAGGAGCGGUAGUGAUGUUACCAAAAGGCUAAGGUGUCAAAAGACACCCUACCAGGUAGGUCGCUGUCCUAUCU readout_kind="apparent KD of K4 kissing-loop reporter" observed_measurement=0.103
sequence_data="UGCGCUGUGUACUGUAAUGUUAUGCGGGAUACCAGAGUCUUUUUAUUCCCUUGGCAGCUUGAGUGAUGUUUGAUGCCGUUCUUGU [plpkmullin]" readout_kind="apparent KD of K4 kissing-loop reporter" observed_measurement=0.401
sequence_data="UGUAAGCGCGUAGAUACCAGCAGACGAGUGAUGUUCAAAAGAUUAAGGAAAAGAAAGUAAUGCCCUUGGCAGCUAAUCAUAAGCG [whbob_Ex_Theo_B_sa92]" readout_kind="apparent KD of K4 kissing-loop reporter" observed_measurement=0.295

Problem: Can you share its apparent KD of K4 kissing-loop reporter? I mean this sequence: GUACGCUCCCGAGUGAUGUUCGGUAAUCGCUAGGAUAUCGCUUUUGCGAGAAGGAGCGGAAUGAGGAAACUCGUUCUGAGUGUAC [FMN A 26]
Solution: 0.338

Problem: Reported apparent KD of K4 kissing-loop reporter for GCGCGUCAUGUCAGCGGUGACACUGUCGAUACCAGCGCCGGAAGGCGCCCUUGGCAGCGACGUGCUGGAGUGAUGUUCCAGCGUG [#2 Exclusion - Theophylline A Attempt #26 (HarryS)] : what is it?
Solution: 0.157

Problem: Need apparent KD of K4 kissing-loop reporter, item UGGAGUUGACGAAAAGUCAACUCCUGAGAUACCAGUGACGAAAGUCACCCUUGGCAGCUCACUGCCAGUGAUGUUGGUUUAUAAA [#OpenEnded 2]
Solution: 0.13

Problem: Item AAAAUAAUCCAGUGAUGUUGGUGUCCAGAUACCAGCGACGAAAGUCGCCCUUGGCAGCUGUGGACGUACAAAAUAAGUACGUCCU has what recorded apparent KD of K4 kissing-loop reporter?
Solution: 0.431

Problem: Quick one: apparent KD of K4 kissing-loop reporter of AAGGUGAUCCUCGAUACCAGCUCAAAAUGAGUGAUGUUCAUGAAAGCCUGGAAACAGGCGAGCCCUUGGCAGCGAGUUACAUCAA [KL-SSTheoB8] ?
Solution: 0.154

Problem: Please give the measured apparent KD of K4 kissing-loop reporter for this sequence: UGGCGAGUGAUGUUCGUUGUUGUAGUGUGCCGAGGACCGGUACGGCCGCCACUCGGGUUGGUUGUUGUUGUUGUUGUUGUUGUUG [whbob_SS_tryp_A]
Solution: 0.0761

Problem: Sample UGUACCGAGUCAGGAUAUCAUAAUAAUCGAGUGAUGUUCGAAUAACGACUGACAAAGUCGGUCGAUUGAGAAGGGACUUGGUACU [FmnBS 7 #SwitchBubble #StaticStem] — what was its apparent KD of K4 kissing-loop reporter?
Solution: 0.378

Problem: Can you share its apparent KD of K4 kissing-loop reporter? I mean this sequence: AAUACUAUCAGAAGGAGCGUGGAAUAUUCAUCUGUAUCUAAUACGAGUGAUGUUCGUAAUUCACAGGUAGGUCGCUGAUUAAUAC [whbob_Ex_Arginine_B_2th158]
Solution: 0.245

Problem: Can you share its apparent KD of K4 kissing-loop reporter? I mean this sequence: AACUUAAUUUAUAAGCAGUGAUGUUGCUCACGAGGACCGGUACGGCCGCCACUCGAUCGGACUUAGGUCUUCAAUUAUUUCUUAA [JR_ExcTryptoA_Sub018]
Solution: 0.121

Problem: Query (sequence): AAUAAUGAUGUUUAGGAAAGUAAAAUGGAAGGAGCGUGCGAAAGCACAGGUAGGUCGCCAGUGAUGUUGGAACCUGAGCAUCAAA [#SwitchBubble 19 #K4Late] ; field requested: apparent KD of K4 kissing-loop reporter
Solution: 0.757
